Test Name: Confirmatory qHTS to identify inhibitors of SARS-CoV-2 cell entry (AID 1645844); also: nearly all actives have a fitted effect of over 45% in size
Details: SARS-CoV-2 pseudotyped particle cell entry, luciferase; series mostly up to 57.2 µM
Inconclusive results are not listed. Calls of active or inactive are those of the source. Calls follow the shape of the full dose curve.
Outcomes: active, inactive

[[record]]
compound = "O[C@@H](COc1cccc2ncccc12)CN1CCN(C2c3ccccc3[C@@H]3[C@H](c4ccccc42)C3(F)F)CC1 (stereo not given in full)"
class = "active"

[[record]]
compound = "c1ccc2c(c1)Sc1ccccc1N2CC1CN2CCC1CC2 (stereo not given)"
class = "active"

[[record]]
compound = "CCCSS/C(CCO)=C(\\C)N(C=O)Cc1cnc(C)nc1N"
class = "inactive"

[[record]]
compound = "CN(C)CCCN1c2ccccc2Sc2ccccc21"
class = "active"

[[record]]
compound = "O=C(Nc1ccccc1)OCC(CN1CCCCC1)OC(=O)Nc1ccccc1 (stereo not given)"
class = "inactive"

[[record]]
compound = "COC(=O)[C@H]1[C@H]2C[C@@H]3c4[nH]c5cc(OC)ccc5c4CCN3C[C@H]2C[C@@H](OC(=O)/C=C/c2ccc(O)c(OC)c2)[C@@H]1OC"
class = "active"

[[record]]
compound = "Oc1ccc(Cl)cc1Cc1cc(Cl)ccc1O"
class = "active"

[[record]]
compound = "CN(C)CCOC(c1ccccc1)c1ccc(Br)cc1 (stereo not given)"
class = "active"

[[record]]
compound = "CCC(=O)C(CCN(C)C)(c1ccccc1)c1ccccc1"
class = "active"

[[record]]
compound = "CN1CCCCC1CCN1c2ccccc2Sc2ccc(S(C)=O)cc21 (stereo not given)"
class = "active"


###

Test Name: qHTS of pediatric cancer cell lines to identify multiple opportunities for drug repurposing: Primary screen for Saos-2 cells (AID 1347097); also: nearly all actives have a fitted effect of over 40% in size
Details: Saos-2 viability, CellTiter-Glo ATP luminescence, 48 h; series mostly up to 46 µM
Records with an inconclusive call do not appear. Activity calls are given as the source filed them. Calls come from the whole dose curve; as a rule, active = well fitted cell-killing curve with a large enough effect; inconclusive = small, poorly fitted or top-dose-only effect; inactive = no such curve, though single readings can be large or run the other way.
Outcomes: 1 for active, 0 for inactive

[[record]]
compound = "ClC1=C(Cl)C2(Cl)C(CBr)CC1(Cl)C2(Cl)Cl (stereo not given)"
class = 0

[[record]]
compound = "C[C@H]1CNCCc2ccc(Cl)cc21"
class = 0

[[record]]
compound = "COCC(=O)N(c1c(C)cccc1C)C(C)C(=O)OC (stereo not given)"
class = 0

[[record]]
compound = "Clc1ccc(C(OCCN2CCCCC2)c2ccccc2)cc1 (stereo not given)"
class = 0

[[record]]
compound = "O=C(CBr)Nc1ccc(Cl)cc1C(=O)c1ccccc1F"
class = 0

[[record]]
compound = "CC(Cc1ccccc1)NCCCCl (stereo not given)"
class = 0

[[record]]
compound = "CCCCCCCCCCCC[N+](C)(C)CCOc1ccccc1"
class = 1

[[record]]
compound = "COc1cc(N)c(Cl)cc1C(=O)NC1CN2CCC1CC2 (stereo not given)"
class = 0

[[record]]
compound = "CC(C)(C)OC(=O)c1ncn2c1[C@@H]1CCCN1C(=O)c1c(Br)cccc1-2"
class = 0

[[record]]
compound = "COc1cc(CC(C)N)cc2c1OCO2 (stereo not given)"
class = 0

[[record]]
compound = "COc1ccc(C(=O)N2CCCC2=O)cc1"
class = 0

[[record]]
compound = "CNC(=O)Oc1cccc2ccccc12"
class = 0

[[record]]
compound = "CN1C[C@@H](NS(=O)(=O)N(C)C)C[C@@H]2c3cccc4c3c(cn4C)C[C@H]21"
class = 0

[[record]]
compound = "Sc1ccccc1Cl"
class = 0

[[record]]
compound = "CC(C)[N+](C)(CCC(C(N)=O)(c1ccccc1)c1ccccc1)C(C)C"
class = 0

[[record]]
compound = "C[C@]12CC[C@H]3[C@@H](CCC4=CC(=O)CC[C@@]43C)[C@@H]1CC[C@@H]2C(=O)O"
class = 0

[[record]]
compound = "NC(=O)OCCCc1ccccc1"
class = 0

[[record]]
compound = "Oc1ccc2[nH]cc(CCCCN3CC=C(c4ccccc4)CC3)c2c1"
class = 0

[[record]]
compound = "CCN(CC)Cc1nccn1-c1ccc([N+](=O)[O-])cc1C(=O)c1ccccc1Cl"
class = 0

[[record]]
compound = "c1cc2c(c(N3CCNCC3)c1)OCCO2"
class = 0

[[record]]
compound = "CCCC[N+]1(C)[C@@H]2CC(OC(=O)[C@H](CO)c3ccccc3)C[C@H]1[C@@H]1O[C@@H]12 (stereo not given in full)"
class = 0

[[record]]
compound = "CCC(=O)C(CCN(C)C)(c1ccccc1)c1ccccc1"
class = 0

[[record]]
compound = "COc1ccc2c3c1O[C@H]1[C@@H](O)C=C[C@H]4[C@@H](C2)N(C)CC[C@@]341"
class = 1

[[record]]
compound = "CCc1cc(OC)c(C[C@H](C)N)cc1OC"
class = 0

[[record]]
compound = "CCOC(=O)C1(c2ccccc2)CCN(CCc2ccc(N)cc2)CC1"
class = 0

